Quick reference: kon of the listed items.
# assay_target: T1, serum purified human Complement Factor D (human, UniProt P00746 26-253)
# T1 construct: Serum purified protein flowed over the captured antibodies; also called CFD; human CFD
# T1 sequence (P00746 26-253): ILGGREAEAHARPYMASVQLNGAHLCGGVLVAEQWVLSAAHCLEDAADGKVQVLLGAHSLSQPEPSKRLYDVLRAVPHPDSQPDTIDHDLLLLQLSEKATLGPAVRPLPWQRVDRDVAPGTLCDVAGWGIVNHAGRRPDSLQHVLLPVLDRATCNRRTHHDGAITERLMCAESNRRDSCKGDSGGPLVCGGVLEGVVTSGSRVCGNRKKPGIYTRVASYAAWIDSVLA
# measurement_notes: SPR Biacore, antibody on protein A chip, single cycle kinetics, 25 C;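 also: antibodies captured to roughly 70 RU on the protein A surface in HBS-EP+ running buffer, with kinetic constants derived by BIAevaluation fitting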
property_label: kon (M⁻¹ s⁻¹)

KCD119 TAF / KCD119 TAF (antibody, V domains shown, Humanized KCD119; tested as full antibody captured on protein A; also called D19 TAF) VH: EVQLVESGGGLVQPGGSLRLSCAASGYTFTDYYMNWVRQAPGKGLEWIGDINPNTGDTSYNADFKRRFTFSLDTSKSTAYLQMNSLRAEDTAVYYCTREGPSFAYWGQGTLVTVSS VL: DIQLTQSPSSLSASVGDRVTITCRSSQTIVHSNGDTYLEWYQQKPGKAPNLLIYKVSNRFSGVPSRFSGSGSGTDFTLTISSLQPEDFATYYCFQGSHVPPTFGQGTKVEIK; 1.38e+07
31S54I59D84S / 54R101V (antibody, V domains shown, also called 31554159D845 / 54R101V) VH: EVQLVESGGGLVQPGGSLRLSCAASGYTFTSYYMNWVRQAPGKGLEWIGDINPITGDTDYNADFKRRFTFSLDTSKSTAYLQMSSLRAEDTAVYYCTREGPSFAYWGQGTLVTVSS VL: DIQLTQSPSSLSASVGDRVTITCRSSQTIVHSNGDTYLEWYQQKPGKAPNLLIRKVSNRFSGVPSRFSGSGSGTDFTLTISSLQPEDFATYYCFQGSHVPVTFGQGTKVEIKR; 1.49e+07
28I31S54V59D / 101V (antibody, V domains shown, KCD119 TAF variant; full antibody captured on protein A) VH: EVQLVESGGGLVQPGGSLRLSCAASGYIFTSYYMNWVRQAPGKGLEWIGDINPVTGDTDYNADFKRRFTFSLDTSKSTAYLQMNSLRAEDTAVYYCTREGPSFAYWGQGTLVTVSS VL: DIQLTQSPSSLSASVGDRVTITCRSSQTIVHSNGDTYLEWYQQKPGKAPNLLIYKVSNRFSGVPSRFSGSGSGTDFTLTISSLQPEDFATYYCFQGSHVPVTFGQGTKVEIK; 7.59e+06
